System: Jurkat cells
Assay: Jurkat T cell viability (fixable dead cell stain)
Type: cell-based
Details: Jurkat T cell assay, MNK-specific inhibitors
Experimental: To examine the effect of MNK-specific inhibitors on PD-1 expression, Jurkat cells (Clone E6.1, ATCC, transformed T cells) were used, which express PD-1 when activated through T cell receptor (TCR) signaling. […] After fixation, cells were washed twice with flow buffer and re-suspended in flow buffer and assessed for fluorescence using BD Accuri C6 flow cytometer. Data were analyzed using the C6 cytometer software (BD Biosciences, San Jose, Calif.).
measured.endpoint: Cell Death

INSERT INTO measurements (molecule, result) VALUES
  ('Cc1cc(Nc2ncnc(N)c2C)c(=O)n2c1C(=O)NC21CCN(CC(F)F)CC1 [Compound 590]', '− (− = 0-10%)'),
  ('Cc1cc(Nc2ncnc(N)c2Cl)c(=O)n2c1C(=O)NC21CCN(C2CC2)CC1 [Compound 752]', '− (− = 0-10%)'),
  ('Cc1cc(Nc2ncnc(N)c2Cl)c(=O)n2c1C(=O)N[C@@]21CCCNC1 [Compound 970]', '− (− = 0-10%)');

###

System: HLA class II protein HLA-DQA1
Assay: HLA-DQA1 protein level in TMD8 cells (Western blot)
Type: cell-based, human
Details: Homo sapiens, TMD8, 48 h, read-out: EC50 of increase in HLA-DQA1 protein level
Method: The ability of MNK-specific inhibitor compounds to regulate the level of HLA class II proteins was evaluated in a diffuse large B-cell lymphoma (DLBCL) cell line, TMD8. […] Treated cells were harvested, washed with PBS and lysed in 1×RIPA buffer (Thermo Fisher) for 15 minutes at 4° C. […] Protein concentration in the soluble fraction was determined using the BCA protein assay (Thermo Scientific). […] The blots were washed, scanned, and specific proteins detected using the LI-COR Odyssey infrared imager. […]
measured.endpoint: EC50

// assay HLA class II protein HLA-DQA1, entry Cc1cc(Nc2cc(N)ncn2)c(=O)n2c1C(=O)NC21CCCCC1.Cl [Compound 107] , EC50 value = ~300 nM

###

tested on: Jurkat cells; test: Jurkat T cell viability (fixable dead cell stain); type: cell-based; conditions: Jurkat T cell assay, MNK-specific inhibitors
measured.endpoint: Cell Death

INSERT INTO assay_data (molecule, result) VALUES
  ('Cc1cc(-n2ccc3c(N)ncnc32)nc2c1C(=O)NC21CCCCC1 [Compound 652]', '− (− = 0-10%)'),
  ('Cc1cc(Nc2ncnc(N)c2Cl)c(=O)n2c1C(=O)NC21CCCCC1 [Compound 474]', '− (− = 0-10%)'),
  ('CCCN1CCC2(CC1)NC(=O)c1c(C)cc(Nc3ncnc(N)c3Cl)c(=O)n12 [Compound 776]', '− (− = 0-10%)');
